Tested on: NCI-H522 lung
ASSAY PROTOCOL: NCI-60 one-dose screen, 48 h
CONDITION: 10 µM unless noted
The panel holds about 83,000 compounds, 20% with a hit somewhere; the sample as a whole holds those more often. Calls of active or inactive are those of the source. Rule for the calls: active = growth percent below 10; inactive = the rest.
Return exactly one item of y = active, n = inactive

{"CHEM SMILES": "CC(=O)Oc1c2c(nc3c1c1ccccc1n3Cc1ccccc1)-c1ccccc1C2", "SYSTEM TESTED": "NCI-H522 lung", "QUALITATIVE LABEL": "n"}
{"CHEM SMILES": "COc1ccc2c(c1)/C(=C1\\S/C(=N/c3nnc(C)s3)NC1=O)C(=O)N2Cc1ccc(Cl)cc1", "SYSTEM TESTED": "NCI-H522 lung", "QUALITATIVE LABEL": "n"}

Field: outcome | Entry: "C=C(C)[C@@H]1CC[C@]2(C(=O)OCCOCCOCC[P+](c3ccccc3)(c3ccccc3)c3ccccc3)CC[C@]3(C)[C@H](CC[C@@H]4[C@@]5(C)CC[C@H](C)C(C)(C)[C@@H]5CC[C@]43C)[C@@H]12"
y

Field: outcome | Entry: "CCCCn1c2cc(OCc3cn(-c4ccc(Cl)cc4)nn3)ccc2c2ccnc(C)c21"
n

Field: outcome | Entry: "COc1ccc2[nH]c(-c3ccccc3)c(C=C(C#N)C#N)c2c1"
y

Field: outcome | Entry: "C#Cc1ccccc1NC(=O)c1sc2nc3c(cc2c1N)CCCCCC3"
n

Field: outcome | Entry: "Nc1cc(N)c(S(=O)(=O)O)cc1N=Nc1cc([N+](=O)[O-])ccc1O"
n

Field: outcome | Entry: "CCN1CCN(Cc2ccc(NC(=O)c3cccc(C#Cc4cccc5[nH]nc(N)c45)c3)cc2C(F)(F)F)CC1"
y

---

Tested on: MDA-MB-435 melanoma
ASSAY PROTOCOL: NCI-60 one-dose screen, 48 h
CONDITION: 10 µM unless noted
Compounds without any hit were thinned out: in the full panel of roughly 83,000, 20% have a hit. Calls of active or inactive are those of the source. The calls were made as follows: active = growth percent below 10; inactive = the rest.
Return exactly one item of active, inactive

{"COMPOUND": "COc1ccc2c(c1)Oc1nc(N)c(C#N)c(N)c1C2Sc1ccc(O)cc1 (configuration not stated)", "QUALITATIVE LABEL": "inactive"}
{"COMPOUND": "C=C(C)[C@@H]1CC[C@]2(C(=O)NCCCO)CC[C@]3(C)[C@H](CC[C@@H]4[C@@]5(C)CCCNC(C)(C)[C@@H]5CC[C@]43C)[C@@H]12", "QUALITATIVE LABEL": "inactive"}
{"COMPOUND": "OCCNc1nc(NCCO)nc(Nc2ccc(C3=NN(c4cc(Cl)cc(Cl)c4)C(c4ccc(Cl)cc4)C3)cc2)n1 (configuration not stated)", "QUALITATIVE LABEL": "active"}
{"COMPOUND": "O=c1[nH]nc(-c2ccc(Br)cc2)c2sc(NC(=S)Nc3ccc(Cl)cc3)nc12", "QUALITATIVE LABEL": "inactive"}
{"COMPOUND": "COc1cc(/C=C/C(=O)c2cccs2)ccc1OCc1ccc(Cl)nc1", "QUALITATIVE LABEL": "inactive"}

Kindly consider the entry below.
Field: outcome | Entry: "O=c1[nH]c2ccccc2cc1-c1nc2ccc(Cl)cc2[nH]1"
inactive
